biological target: TLK1 (human) (UniProt Q9UKI8); experiment: KINOMEscan competition binding; conditions: compound 10.0 µM
Sequence (Q9UKI8 whole entry, looked up): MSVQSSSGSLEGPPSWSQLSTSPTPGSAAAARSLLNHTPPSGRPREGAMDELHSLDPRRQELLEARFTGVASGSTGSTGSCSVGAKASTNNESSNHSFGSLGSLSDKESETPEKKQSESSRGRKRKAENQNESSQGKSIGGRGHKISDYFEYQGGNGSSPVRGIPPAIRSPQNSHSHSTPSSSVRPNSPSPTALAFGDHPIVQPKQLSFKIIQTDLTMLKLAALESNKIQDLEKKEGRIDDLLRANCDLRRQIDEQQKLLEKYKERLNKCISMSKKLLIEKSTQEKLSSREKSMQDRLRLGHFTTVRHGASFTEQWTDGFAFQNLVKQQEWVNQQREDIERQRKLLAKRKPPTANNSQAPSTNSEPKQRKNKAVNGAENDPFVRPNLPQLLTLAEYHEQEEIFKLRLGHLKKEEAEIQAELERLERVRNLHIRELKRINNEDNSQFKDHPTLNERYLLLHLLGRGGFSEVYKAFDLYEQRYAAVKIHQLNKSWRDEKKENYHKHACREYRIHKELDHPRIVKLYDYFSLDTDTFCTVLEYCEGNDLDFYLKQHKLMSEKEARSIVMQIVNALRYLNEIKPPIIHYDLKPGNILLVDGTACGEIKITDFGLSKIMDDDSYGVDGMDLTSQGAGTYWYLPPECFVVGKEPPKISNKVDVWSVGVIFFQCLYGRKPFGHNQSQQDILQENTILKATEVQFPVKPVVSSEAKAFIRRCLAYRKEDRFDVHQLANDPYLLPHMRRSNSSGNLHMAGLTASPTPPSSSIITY

# MOLECULE, TARGET UNDER TEST, kinase still bound, per cent of control, %
data = [
    ("CCCS(=O)(=O)Nc1ccc(F)c(C(=O)c2c[nH]c3ncc(Cl)cc23)c1F", "TLK1 (human) (UniProt Q9UKI8)", 58),
    ("CC1=C(C(=O)Nc2cc3cn[nH]c3cc2F)C(c2ccc(C(F)(F)F)cc2)CC(=O)N1 (stereo not drawn)", "TLK1 (human) (UniProt Q9UKI8)", 90),
    ("CCN1CCN(Cc2ccc(NC(=O)c3ccc(C)c(/C=C/c4cnc5[nH]ccc5c4OC)c3)cc2C(F)(F)F)CC1", "TLK1 (human) (UniProt Q9UKI8)", 100),
    ("COc1cc2c(Nc3ccc(NC(=O)c4ccccc4)cc3)ncnc2cc1OCCCN1CCOCC1", "TLK1 (human) (UniProt Q9UKI8)", 78),
    ("CCc1nc(-c2cccc(C)c2)c(-c2ccnc(NC(=O)c3ccccc3)c2)s1", "TLK1 (human) (UniProt Q9UKI8)", 82),
    ("CCN(CCO)CCCOc1ccc2c(Nc3cc(CC(=O)Nc4cccc(F)c4)[nH]n3)ncnc2c1", "TLK1 (human) (UniProt Q9UKI8)", 60),
    ("COc1cc2ncnc(Nc3cccc(Cl)c3)c2cc1OC", "TLK1 (human) (UniProt Q9UKI8)", 87),
    ("CC(=O)c1c(C)c2cnc(Nc3ccc(N4CCNCC4)cn3)nc2n(C2CCCC2)c1=O", "TLK1 (human) (UniProt Q9UKI8)", 42),
    ("Cc1cn(-c2cc(C(=O)Nc3ccc(C)c(NC(=O)c4ccno4)c3)cc(C(F)(F)F)c2)cn1", "TLK1 (human) (UniProt Q9UKI8)", 100),
    ("O=c1[nH]c2ccccc2n1C1CCN(Cc2ccc(-c3nc4cc5[nH]cnc5cc4nc3-c3ccccc3)cc2)CC1", "TLK1 (human) (UniProt Q9UKI8)", 100),
    ("CNC(=O)Nc1ccc(-c2nc(N3CC4CCC(C3)O4)c3cnn(C4CCC5(CC4)OCCO5)c3n2)cc1", "TLK1 (human) (UniProt Q9UKI8)", 86),
    ("C=CC(=O)Nc1ccc(C(=O)c2sc(Nc3ccc(N4CCN(C)CC4)cc3OC)nc2N)cc1", "TLK1 (human) (UniProt Q9UKI8)", 69),
    ("N#C/C(=C1/Nc2ccccc2S1)c1ccnc(NCCc2cccnc2)n1", "TLK1 (human) (UniProt Q9UKI8)", 57),
    ("COc1cc(N2CCC(C(N)=O)CC2)ccc1Nc1nc(N)c(Cl)c(Nc2ccccc2S(=O)(=O)C(C)C)n1", "TLK1 (human) (UniProt Q9UKI8)", 100),
    ("COc1cc(C)c(Sc2cnc(NC(=O)c3ccc(CNC(C)C(C)C)cc3)s2)cc1C(=O)N1CCN(C(C)=O)CC1 (stereo not drawn)", "TLK1 (human) (UniProt Q9UKI8)", 100),
    ("COc1ccc(N(C(=O)Oc2cc(C(=O)Nc3cccc(C(F)(F)F)c3)ccc2C)c2ccnc(Nc3ccc(N4CCN(C)CC4)cc3)n2)c(OC)c1", "TLK1 (human) (UniProt Q9UKI8)", 100),
    ("N#Cc1cc(-c2ccnc(Nc3ccc(-n4cnc(-c5cccnc5)n4)cc3)n2)cc(N2CCOCC2)c1", "TLK1 (human) (UniProt Q9UKI8)", 39),
    ("CCOc1cc(N2CCC(O)CC2)ccc1Nc1ncc2c(n1)N(C)c1ccccc1C(=O)N2C", "TLK1 (human) (UniProt Q9UKI8)", 100),
]

Value source: the kinase profiling compilation of Christmann-Franck et al. (2016)
